# TEST_NAME: amyloid nucleation score (Sup35N fusion, yeast selection) (log enrichment); library NNK3; higher = more nucleation; inactive = no reads after selection;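 further: zero at mode of non-aggregating sequences after 7 days selection at 30°C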
MEASURED_ATTRIBUTE: amyloid nucleation score

Below are worked cases with known answers.
SIKLGFYIIIFDLWYSPMMV    inactive
LLSIRTSSCFCKRGSTKFED    0.176
TSYNFTQLTPILVKLMQMNL    inactive
ESLATNQVDMFSLSVRIFGP    inactive
YLLNVVYGKEVHMASDFLYG    inactive

Fill in: amyloid nucleation score of `THIGFFFNCIL` is ___
2.56

Tell me the measured amyloid nucleation score of `CYSVDRDV` , please.
inactive

Need amyloid nucleation score of `LLLRFFRYLGYKLMRTIE` , thanks.
inactive

Fill in: amyloid nucleation score of `EFLGFCFPIAGYFLKDEKIG` is ___
inactive

----------
# TEST_NAME: amyloid nucleation score (Sup35N fusion, yeast selection) (log enrichment); library NNK1; higher = more nucleation; inactive = no reads after selection
param class (str): category from amyloid nucleation score; see ranges low end (below -0.1), middle (-0.1 to below 1), high end (1 or more)

Below, 10 substances whose answers are already recorded.
LKWSSGHGKIGSNVWRRVYC    middle
TYILVFSVIYPSLKYECFCQ    high end
IVNAGICPGNSRYSGNGATR    low end
SFLCAFICHYTDVFVHLARS    high end
VNIRRRTLFS    middle
QKSIDLYFEKRHTISTQNR    low end
NHFFCGLGNYLSAVFIVIRK    low end
VLRFGRWSYFVGVLPEKKRQ    low end
TRPLQYIQ    middle
MRVHFLE    middle

Which bin should I file `LPSSGA` under?
middle

Using the reported amyloid nucleation score, which band applies to `VYIHTWIRVKIWSSS` ?
high end

Kindly identify the class of `VMTRNTCVQVGLEGTSQFAG` .
middle

----------
# TEST_NAME: amyloid nucleation score (Sup35N fusion, yeast selection) (log enrichment); library NNK1; higher = more nucleation; inactive = no reads after selection
Reported values of amyloid nucleation score for individual entries
Number only, no unit.

Some solved cases for reference:
EAARMWSFNGNLSVFWIT    5.72
PFVGTIFVSGSGTSMENGIC    -0.601
IDTNCRNCGYREFASKCELR    0.456
PREVVAQKHCSLLQFDLLYS    -0.556
EVPMVFRGNEGVSRDCSLVG    -0.469
IFRSFLDG    -0.437
WVQGRRTFLVGWRGSQRGPI    -0.995
RYHSPEYTARTLMG    0.264

Bench note: what amyloid nucleation score did `AASRLVRDDWTLISGHPSKA` show?
0.844

Request the reported amyloid nucleation score associated with `YIHDQIIALFKQDLFSGSLH`
0.961

I would be grateful if you could share the reported amyloid nucleation score for `SQLGMAWLSHGVDLPIRFYK` .
0.241

Entry `QNFNFSWVYTFYTRICTLYF` has what amyloid nucleation score?
5.87

----------
# TEST_NAME: amyloid nucleation score (Sup35N fusion, yeast selection) (log enrichment); library NNK3; higher = more nucleation; inactive = no reads after selection
MEASURED_ATTRIBUTE: amyloid nucleation score

DHLQVHYCGRHVLGAKKFAR    inactive
SFFNFRMD    inactive
DSRLSAEYMVRMGKVYIDDS    inactive
NVFMTWYTARGFMCYPSWDR    0.324
SDERCLFGVQRYMHVFLRPI    inactive

Which value of amyloid nucleation score has been reported for `ACSLAFLHICHRHF` in the records?
0.712

Field request: amyloid nucleation score | item: `IVALQRSFSNNT`
inactive

Which amyloid nucleation score is reported for this substance? `LTWLYDDDVSKFRTLLKFRS`
inactive

I would be grateful if you could share the reported amyloid nucleation score for `WHGYYMFLW` .
inactive

May I ask what amyloid nucleation score has been recorded for `APNFCWSLFYVDSNVEFERL` ?
inactive

Quick one: amyloid nucleation score of `MFVDSSISGIEIR` ?
inactive

Name the recorded amyloid nucleation score for `ERIIFYCNRVRRMLYGGLVR` .
inactive

Name the reported amyloid nucleation score value associated with the substance `VRFYVLSPKDFWAFLKILFR`
inactive

// query amyloid nucleation score value for entry `ISEVESWPFHCGYGNI`
0.467

Which amyloid nucleation score is listed for `TYYLSMN` ?
inactive

What amyloid nucleation score value was documented for this substance, `YRCFLNFIEMIDTCAGDLES` ?
inactive

Which amyloid nucleation score reading was recorded for the substance `NMCSFFFRVSPVLQVQVSLV` ?
1.61

Would you kindly share the measured amyloid nucleation score for `FTEKGGLPC` ?
inactive

----------
# TEST_NAME: amyloid nucleation score (Sup35N fusion, yeast selection) (log enrichment); library NNK3; higher = more nucleation; inactive = no reads after selection
MEASURED_ATTRIBUTE: amyloid nucleation score

// below: answered substances
SSIVENGCNTERSPMIGCVS    -0.576
RSYIKGIFCLSAMRFQCSMS    -0.404
YMGILCMGLLNSKW    -0.606
FSLVAKMSFESLATNRWDSR    1.41
GVNIRCLRDDDSRLLKERSC    inactive
TATWSFNVT    inactive

# input substance: `SIQKSWDASGSLIYS` ; wanted: its amyloid nucleation score
inactive

Field request: amyloid nucleation score | item: `VACCAGFDNRAVLWGCANPI`
inactive

Item `YAWLCAASRYKTMVESLAEF` has what recorded amyloid nucleation score?
inactive

Reported amyloid nucleation score for `DPIYVANARNHRLS` : what is it?
inactive

What does the record list as amyloid nucleation score for `IVQLHDIVDS` ?
-0.168

Can you share its amyloid nucleation score? I mean this substance: `SLDIWGCSKGRRWSGFKI`
inactive

Would you kindly share the measured amyloid nucleation score for `HKGALVWYFYCRANFADYLY` ?
inactive

# amyloid nucleation score lookup, item `LDVGIVYSLVVCRKIRRSL`
inactive

Which amyloid nucleation score value is on record for `LDSGISNHPNFIFTHTEFIN` ?
inactive

So what does the record say about amyloid nucleation score for `FFSISFS` ?
inactive

// lookup amyloid nucleation score for `PVFLCSLLLVPKANSIPGK`
inactive

----------
# TEST_NAME: amyloid nucleation score (Sup35N fusion, yeast selection) (log enrichment); library NNK2; higher = more nucleation; inactive = no reads after selection
MEASURED_ATTRIBUTE: amyloid nucleation score

SGLRYFMFIISNSI    0.58
LIFRVFFALTVGIRRIMHML    5.83
TVKCYNL    0.268
AMFSEVYASHQVVPYPLSLS    0.746
ARLLSG    0.626

What does the data say about its amyloid nucleation score? Entry: `TSSTLGLYSHDMPTATHLME`
-0.176

Quick check: amyloid nucleation score of `TVAVGVIV` ?
inactive

# lookup: amyloid nucleation score of `WYCSHFISFHLESKF`
4.76

I am curious: what amyloid nucleation score value has been reported for `LIYRCN` ?
-0.673

amyloid nucleation score for `GMEINAYY` ?
0.048

----------
# TEST_NAME: amyloid nucleation score (Sup35N fusion, yeast selection) (log enrichment); library NNK2; higher = more nucleation; inactive = no reads after selection
MEASURED_ATTRIBUTE: amyloid nucleation score

VCVLGIGT    inactive
KTGYINCSIMDYMV    inactive
MFSIYLLSCPLYISMNWSCR    0.183
RLSAHPVAAVLWG    1.49
RDMHLGRTEFVARYWELFRY    -0.473

For `DITTEVKGSLLVMLSGDNAG` , what is its reported amyloid nucleation score?
0.807

Request the reported amyloid nucleation score associated with `LIVTLSDRWWEKGASLVESG`
0.699

What value of measured amyloid nucleation score is listed for `WLRDYRLWATT` ?
-0.223

Given the substance `CFGMLS` , what is its reported amyloid nucleation score?
-0.679

Please report the recorded amyloid nucleation score for `NYIVVARFYSRVVFFRV` .
inactive

Reported amyloid nucleation score for `VSLLWYHFGWLLDCFWYRWS` : what is it?
0.429

Which amyloid nucleation score reading was recorded for the substance `KHFRREW` ?
1.35

Value lookup for amyloid nucleation score; key = `GRRLKGYVTSGIEDWLKGRM`
0.908

What value of amyloid nucleation score has been reported for the following substance? `GISRGLILEVTC`
1.12

May I ask what amyloid nucleation score has been recorded for `MSVPFLWFTYHFSRPVLSVT` ?
0.389

Which amyloid nucleation score is listed for `VWPTMCTVFAMF` ?
2.51

Fill in the blank: the reported amyloid nucleation score of `LYKVYVFYNNNVVMVRLALK` is ____.
inactive

May I ask what amyloid nucleation score has been recorded for `VYPDSIVGFEADVNGCVVVP` ?
0.713

----------
Listing: amyloid nucleation score of selected sequences
# TEST_NAME: amyloid nucleation score (Sup35N fusion, yeast selection) (log enrichment); library NNK2; higher = more nucleation; inactive = no reads after selection
Just the number, please.

Sample records with amyloid nucleation score:
MDYWVFMPFQLHRLCCYTPL    -0.303
WTTRFSCITTFLRQCPYM    0.148
TRYTRGSALCTLDGKIYMMK    1.29
SIGHNSSF    0.117
NLARYLLRKELARYFMSQ    -0.578
LLTMGVGRVGAWEQN    0.801

What does the record list as amyloid nucleation score for `STCKLWGVQWFPGGEDRNWK` ?
-0.155
